test: qHTS assay to identify small molecule agonists of the hypoxia (HIF-1) signaling pathway (AID 1224846); conditions: HRE-bla ME-180 cells, beta-lactamase ratio, 17 h; series mostly up to 76.8 µM
Inconclusive results are not listed. The source made the active and inactive calls. The call rests on the fitted dose curve; in most records, active means well fitted activation curve with a large enough effect in the signal ratio in the repeat runs (not every such curve was filed as active); inconclusive means weak or mixed curves; inactive means flat fitted curve, though single readings scatter; the % refers to the signal ratio.
Outcome field: choose from active, inactive

Example cases with answers are listed next.
Nc1ccc2cc(S(=O)(=O)O)cc(O)c2c1N=Nc1ccccc1C(F)(F)F | inactive
Cc1cc2c(cc1C(F)(F)F)N(C(=O)Nc1ccc(Oc3cccnc3C)nc1)CC2 | inactive

*Q* Dear all, I need the recorded test outcome for Fc1ccc([C@@H]2CCNC[C@H]2COc2ccc3c(c2)OCO3)cc1 , thank you.
*A* inactive

*Q* Same question, CN1CCC(Nc2ncc3ncnc(Nc4ccc(F)c(Cl)c4)c3n2)CC1 this time
*A* active

*Q* Now consider Nc1c(Cl)cc(Cl)cc1Cl and answer again.
*A* inactive

*Q* Another compound: CCCC/C=C/CCCCO
*A* inactive

---

biological target: Estrogen receptor (Homo sapiens) (UniProt P03372); assay: qHTS assay to identify small molecule antagonists of the estrogen receptor alpha (ER-alpha) signaling pathway using the BG1 cell line in the presence of 0.1 nM 17-beta-estradiol (AID 1259244); conditions: VM7Luc4E2 (BG1) ERE-luciferase, antagonist mode, 0.1 nM E2, 22 h; series mostly up to 92.4 µM; further: nearly all actives have a fitted effect of over 50% in size; further: potency means the concentration at half of the fitted maximal effect
Sequence (P03372 whole entry, looked up): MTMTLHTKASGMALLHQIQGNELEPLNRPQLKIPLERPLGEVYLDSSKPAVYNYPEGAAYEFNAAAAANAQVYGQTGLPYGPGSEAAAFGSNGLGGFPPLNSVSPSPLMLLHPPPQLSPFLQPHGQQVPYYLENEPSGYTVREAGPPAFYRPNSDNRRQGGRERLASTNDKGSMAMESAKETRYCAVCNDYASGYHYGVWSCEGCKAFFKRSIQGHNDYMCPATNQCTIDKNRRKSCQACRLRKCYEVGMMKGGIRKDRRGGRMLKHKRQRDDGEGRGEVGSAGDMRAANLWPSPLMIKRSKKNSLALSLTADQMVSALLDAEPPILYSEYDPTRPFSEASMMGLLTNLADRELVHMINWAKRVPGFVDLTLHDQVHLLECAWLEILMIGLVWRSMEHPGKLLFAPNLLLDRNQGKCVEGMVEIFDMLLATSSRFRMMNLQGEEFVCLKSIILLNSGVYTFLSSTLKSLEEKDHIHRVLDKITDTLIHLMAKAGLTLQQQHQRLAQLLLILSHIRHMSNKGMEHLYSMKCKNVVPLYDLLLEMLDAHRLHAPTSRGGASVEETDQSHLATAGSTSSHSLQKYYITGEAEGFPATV
Records with an inconclusive call do not appear. The source made the active and inactive calls. The call rests on the fitted dose curve; in most records, active means well fitted inhibition curve with a large enough effect in the repeat runs; inconclusive means weak or mixed curves; inactive means no such curve, though single readings can be large or run the other way.
measured_quantity: Potency

Consider the worked cases shown below.
Clc1ccc2cc3ccccc3cc2c1 | inactive
CN(C)c1ccc(SC#N)cc1 | inactive
CCCN(CCC)C(=O)C(CCC(=O)OCCCN1CCN(CCOC(=O)Cc2c(C)n(C(=O)c3ccc(Cl)cc3)c3ccc(OC)cc23)CC1)NC(=O)c1ccccc1 (stereo not given) | inactive
CC(C)(C)CC(C)(C)c1ccc(O)c(Cc2ccc(Cl)cc2Cl)c1 | 33.5 µM (active)
NNc1nc(-c2ccc([N+](=O)[O-])cc2)cs1 | 48.6 µM (active)

Let us examine a further case.
*Q* Query (molecule): CC[C@H](c1ccc(O)cc1)[C@@H](CC)c1ccc(O)cc1 ; field requested: Potency
*A* 48.6 µM (active)

---

target: Peroxisome proliferator-activated receptor delta (Homo sapiens); assay: qHTS assay to identify small molecule antagonists of the peroxisome proliferator-activated receptor delta (PPARd) signaling pathway (AID 743215); conditions: HEK293H PPARd-UAS-bla, beta-lactamase FRET ratio, antagonist, 17 h; series mostly up to 62 µM;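 further: cells stimulated with agonist L165041 at 300 nM final during compound exposure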
Inconclusive results are not listed. Activity calls are given as the source filed them. The call rests on the fitted dose curve; in most records, active means well fitted inhibition curve with a large enough effect in the signal ratio in the repeat runs (not every such curve was filed as active); inconclusive means weak or mixed curves, or effect the other way; inactive means no such curve, though single readings can be large or run the other way; the % refers to the signal ratio.
I would appreciate it if you answered using one of these outcomes: Yes = active, No = inactive

*Q* I'd appreciate the recorded outcome for O=C(OCC(COC(=O)c1ccccc1)(COC(=O)c1ccccc1)COC(=O)c1ccccc1)c1ccccc1 from this test.
*A* No

*Q* Moving on to the next molecule: CC(=O)OCC(C)OC(C)=O (configuration not stated)
*A* No

*Q* Now consider CCCC1O[C@@H]2C[C@H]3[C@@H]4CCC5=CC(=O)C=C[C@]5(C)[C@H]4[C@@H](O)C[C@]3(C)[C@]2(C(=O)CO)O1 (some centres not stated) and answer again.
*A* No

*Q* How about this molecule: Cc1c(C)c2c(c(C)c1OC(=O)CCC(=O)O)CC[C@@](C)(CCC[C@H](C)CCC[C@H](C)CCCC(C)C)O2
*A* No

*Q* Can you check Nc1ccccc1O next?
*A* No

*Q* Now the molecule CCC(N)(CO)CO
*A* No

*Q* What do we get for O=C(O)c1c(Cl)cccc1Cl ?
*A* No

*Q* Also, c1ccc(CSCc2ccccc2)cc1 please.
*A* No

*Q* Likewise for COCCCC/C(=N\OCCN)c1ccc(C(F)(F)F)cc1 ?
*A* No

*Q* Queued: C[n+]1cc2c3c(ccc2c2ccc4cc5c(cc4c21)OCO5)OCO3
*A* Yes

*Q* Another molecule to check: CC(C)(C)C(=O)OCOC(=O)C1N2C(=O)CC2S(=O)(=O)C1(C)C (configuration not stated)
*A* Yes

*Q* Field entry: Cc1[nH]nc2c1N=C(c1ccccc1Cl)c1cc([N+](=O)[O-])ccc1N2
*A* Yes
